Assign EC50 for c-Abl activation to each entry below.
measuredOn: Tyrosine-protein kinase ABL1 (Homo sapiens)
Sequence (P00519 whole entry): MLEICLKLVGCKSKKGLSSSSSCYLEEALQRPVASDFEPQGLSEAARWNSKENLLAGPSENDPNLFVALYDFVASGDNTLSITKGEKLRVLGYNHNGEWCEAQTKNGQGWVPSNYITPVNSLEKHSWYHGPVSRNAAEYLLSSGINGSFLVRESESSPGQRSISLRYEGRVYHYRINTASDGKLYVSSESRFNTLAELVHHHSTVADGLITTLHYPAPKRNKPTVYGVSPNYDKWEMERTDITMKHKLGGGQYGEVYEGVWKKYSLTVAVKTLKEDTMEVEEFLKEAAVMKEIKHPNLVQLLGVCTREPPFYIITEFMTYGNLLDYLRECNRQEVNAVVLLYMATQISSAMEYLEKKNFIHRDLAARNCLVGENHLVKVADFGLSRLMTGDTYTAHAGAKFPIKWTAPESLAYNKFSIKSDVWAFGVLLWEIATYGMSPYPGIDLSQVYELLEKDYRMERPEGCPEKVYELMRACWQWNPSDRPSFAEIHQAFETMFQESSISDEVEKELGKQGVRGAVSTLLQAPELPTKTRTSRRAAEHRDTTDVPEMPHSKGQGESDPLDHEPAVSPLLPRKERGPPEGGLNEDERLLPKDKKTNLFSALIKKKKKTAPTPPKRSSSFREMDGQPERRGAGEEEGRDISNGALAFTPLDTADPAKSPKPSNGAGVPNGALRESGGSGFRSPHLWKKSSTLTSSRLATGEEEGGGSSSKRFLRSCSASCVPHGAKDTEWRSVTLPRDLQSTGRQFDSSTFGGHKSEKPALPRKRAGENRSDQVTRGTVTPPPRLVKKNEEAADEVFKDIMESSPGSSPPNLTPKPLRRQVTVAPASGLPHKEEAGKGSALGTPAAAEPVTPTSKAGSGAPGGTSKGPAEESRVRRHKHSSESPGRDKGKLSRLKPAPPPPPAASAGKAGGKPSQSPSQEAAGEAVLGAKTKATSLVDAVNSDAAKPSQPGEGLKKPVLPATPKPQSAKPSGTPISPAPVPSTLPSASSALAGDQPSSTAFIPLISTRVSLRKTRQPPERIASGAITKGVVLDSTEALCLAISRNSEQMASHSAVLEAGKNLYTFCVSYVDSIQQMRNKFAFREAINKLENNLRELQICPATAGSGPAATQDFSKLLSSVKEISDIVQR
assayDetails: Activation of full length human 6His-tagged c-Abl expressed in baculovirus expression system using abltide as substrate after 2 hrs by IMAP assay
conditionLabel: read-out: pIC50 (converted)

Reference set, count: 5
O=C(NC1=NN(c2ccc(Cl)c(Cl)c2)CC1)c1ccccn1 : 2000 nM
CC(=O)NC1=NN(c2ccc(Cl)c(Cl)c2)[C@@H](C)C1 : 501 nM
N#CCCC(=O)NC1=NN(c2ccc(Cl)c(Cl)c2)CC1 : 251 nM
N#CCC(=O)Nc1nc(-c2ccc(Cl)c(Cl)c2)ns1 : 3160 nM
O=C(NC1=NN(c2ccc(Cl)c(Cl)c2)CC1)c1c(F)cccc1F : 631 nM

Would you mind listing EC50 for c-Abl activation for each of the following compounds?
1. CC(=O)Nc1nc(-c2ccc(F)c(Cl)c2)cs1
2. N#CCC(=O)Nc1nc(-c2ccc(Cl)c(Cl)c2)cs1

["39800 nM", "1260 nM"]
